Reported pKi values are given for each entry in this list.
# TEST_PROTOCOL: Displacement of [3H]Prazosin from adrenergic alpha1 receptor in pig cerebral cortex homogenates
# Assay type: tissue-based, Sus scrofa
# pKi: negative log10 of molar concentration; output just the value

Worked set:
{"STRUCTURE_NOTATION": "Cc1ccc(C)c(C(=O)CCCN2CCC(O)(c3cc(C)ccc3C)CC2)c1", "pKi": 7.96}
{"STRUCTURE_NOTATION": "COc1ccccc1N1CCN(CCCCNC(=O)c2cc3ccccc3s2)CC1", "pKi": 7.85}
{"STRUCTURE_NOTATION": "Cc1ccc(C)c(C2(O)CCN(CCCC(=O)c3ccc(F)cc3)CC2)c1", "pKi": 8.89}

pKi reported for this molecule O=C(CCCN1CCN(c2cc3ccc2CCc2ccc(cc2)CC3)CC1)c1ccc(F)cc1 : 7.15

pKi reported for this molecule Cc1ccc(C)c(C(=O)CCCN2CCC(O)(c3ccc(Cl)cc3)CC2)c1 : 7.46

pKi reported for this molecule Cc1ccc(C)c(N2CCN(CCCC(=O)c3ccc(F)cc3)CC2)c1 : 8.49

pKi reported for this molecule O=C(CCCN1CCN(c2ccc(Cl)cc2)CC1)c1ccc(F)cc1 : 7.89

pKi reported for this molecule COc1ccccc1N1CCN(CCCCNC(=O)c2cc(C)ccc2C)CC1 : 7.85

pKi reported for this molecule O=C(CCCN1CCC(O)(c2ccc(Cl)cc2)CC1)c1ccc(F)cc1 : 8.17

###

Record set of Ki for target or system UniProt P50129.
Sequence (P50129 whole entry): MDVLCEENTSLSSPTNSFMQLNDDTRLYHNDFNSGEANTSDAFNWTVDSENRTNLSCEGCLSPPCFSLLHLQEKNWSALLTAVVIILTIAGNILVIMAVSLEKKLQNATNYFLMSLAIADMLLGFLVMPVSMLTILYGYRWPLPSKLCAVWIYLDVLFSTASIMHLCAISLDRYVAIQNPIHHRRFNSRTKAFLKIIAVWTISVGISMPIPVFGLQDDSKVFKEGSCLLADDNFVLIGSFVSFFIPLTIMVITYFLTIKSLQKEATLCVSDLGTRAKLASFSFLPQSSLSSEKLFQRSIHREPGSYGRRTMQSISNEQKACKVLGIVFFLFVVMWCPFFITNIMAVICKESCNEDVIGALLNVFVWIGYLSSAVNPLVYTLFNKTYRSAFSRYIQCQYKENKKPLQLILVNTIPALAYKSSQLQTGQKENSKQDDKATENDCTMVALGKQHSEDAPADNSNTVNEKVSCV
Please don't drop the unit; write it after the number.

Worked set:
{"STRUCTURE_NOTATION": "COc1ccccc1N1CCN(CCCCNC(=O)c2cc(C)ccc2C)CC1", "ENDPOINT_RESULT": "1500 nM"}
{"STRUCTURE_NOTATION": "O=C(CCCN1CCC(O)(c2cc3ccc2CCc2ccc(cc2)CC3)CC1)c1cc2ccc1CCc1ccc(cc1)CC2", "ENDPOINT_RESULT": "1200 nM"}

Turning to the following molecule.
Ki reported for this molecule Cc1ccc(C)c(C(=O)CCCN2CCC(O)(c3ccc(Cl)cc3)CC2)c1 : 690 nM

###

# TGT: D(3) dopamine receptor (Homo sapiens, UniProt P35462)
# Sequence (P35462 whole entry): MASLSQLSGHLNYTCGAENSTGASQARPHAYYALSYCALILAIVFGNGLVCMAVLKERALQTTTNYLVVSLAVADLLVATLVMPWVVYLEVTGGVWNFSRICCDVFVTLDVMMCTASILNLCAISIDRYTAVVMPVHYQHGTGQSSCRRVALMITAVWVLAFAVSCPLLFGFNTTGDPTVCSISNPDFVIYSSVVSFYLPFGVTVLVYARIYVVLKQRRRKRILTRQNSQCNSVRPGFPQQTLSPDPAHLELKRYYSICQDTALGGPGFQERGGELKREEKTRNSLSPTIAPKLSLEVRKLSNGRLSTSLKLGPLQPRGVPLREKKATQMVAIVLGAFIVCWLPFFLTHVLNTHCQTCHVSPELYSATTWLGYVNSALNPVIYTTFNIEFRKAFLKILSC
pKi: −log10 of the molar value.
Class Criterion met: pKi at least 8. Class Criterion not met: pKi below 8.

// below: answered molecules
{"STRUCTURE_NOTATION": "COc1ccccc1N1CCN(CCCCNC(=O)c2cc(C)ccc2C)CC1", "TGT": "D(3) dopamine receptor (Homo sapiens, UniProt P35462)", "GROUP_LABEL": "Criterion met"}
{"STRUCTURE_NOTATION": "O=C(CCCN1CCC(O)(c2cc3ccc2CCc2ccc(cc2)CC3)CC1)c1cc2ccc1CCc1ccc(cc1)CC2", "TGT": "D(3) dopamine receptor (Homo sapiens, UniProt P35462)", "GROUP_LABEL": "Criterion not met"}

Consider now this further molecule.
Task: Evaluate Cc1ccc(C)c(N2CCN(CCCC(=O)c3ccc(F)cc3)CC2)c1 : pKi at minimum 8?
Result: Criterion not met

###

# TGT: D(2) dopamine receptor (Homo sapiens)
# Sequence (P14416 whole entry): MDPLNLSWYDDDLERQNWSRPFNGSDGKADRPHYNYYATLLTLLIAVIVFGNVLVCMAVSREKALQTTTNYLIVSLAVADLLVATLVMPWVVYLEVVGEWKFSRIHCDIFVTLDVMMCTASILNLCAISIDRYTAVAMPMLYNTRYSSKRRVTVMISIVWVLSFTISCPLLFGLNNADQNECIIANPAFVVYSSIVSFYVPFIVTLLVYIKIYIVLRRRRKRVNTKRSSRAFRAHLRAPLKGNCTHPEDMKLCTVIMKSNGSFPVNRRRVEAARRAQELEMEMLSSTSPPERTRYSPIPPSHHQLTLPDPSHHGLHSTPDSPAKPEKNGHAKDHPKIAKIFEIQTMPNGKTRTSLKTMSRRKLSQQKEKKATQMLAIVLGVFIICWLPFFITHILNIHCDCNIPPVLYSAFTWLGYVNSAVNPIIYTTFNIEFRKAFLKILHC
# TEST_PROTOCOL: Displacement of [3H]Spiperone from human dopamine D2 short receptor expressed in CHO cells
# Assay type: cell-based
TEST_READOUT: pKi
# pKi: negative log10 of molar concentration; output just the value

{"STRUCTURE_NOTATION": "O=C(NCCCCN1CCN(c2cc3ccc2CCc2ccc(cc2)CC3)CC1)c1cc2ccccc2s1", "TGT": "D(2) dopamine receptor (Homo sapiens)", "pKi": 6.82}
{"STRUCTURE_NOTATION": "O=C(CCCN1CCN(c2cc3ccc2CCc2ccc(cc2)CC3)CC1)c1ccc(F)cc1", "TGT": "D(2) dopamine receptor (Homo sapiens)", "pKi": 7.66}

Turning to the following molecule.
pKi reported for this molecule Cc1ccc(C)c(N2CCN(CCCC(=O)c3ccc(F)cc3)CC2)c1 : 7.80
